Data provenance: PubChem BioAssay AID1259407

Tested on: CCRIS mutagenicity, Ames/micronucleus/aberration tests
Test description: CCRIS mutagenicity studies
Measurement conditions: Test System: AMES SALMONELLA TYPHIMURIUM; Strain/Indicator: TA1535; Metabolic Activation: HAMSTER, LIVER, S-9, AROCLOR 1254 (30%); Method: PREINCUBATION
The source made the active and inactive calls. The rule behind the calls is not given here.
Please state which outcome applies, choosing from active, inactive

For orientation, consider the following solved cases.
| Compound | Classification |
| --- | --- |
| Oc1ccc(Cl)cc1Cc1cc(Cl)ccc1O | inactive |
| CC(Cl)Cl | inactive |
| Cc1ccc(Cl)cc1 | inactive |
| CCCCC(CC)CNCC(CC)CCCC (stereo unspecified) | inactive |
| Cc1cccc(C#N)c1 | inactive |

For the next question, use this compound.
INPUT: I would be grateful if you could indicate the recorded call for `Oc1cccc(Nc2ccccc2)c1` .
OUTPUT: inactive

* * *

Tested on: CCRIS mutagenicity, Ames/micronucleus/aberration tests
Test description: CCRIS mutagenicity studies
Measurement conditions: Test System: AMES SALMONELLA TYPHIMURIUM; Strain/Indicator: TA1535; Metabolic Activation: NONE; Method: PREINCUBATION
Calls of active or inactive are those of the source. The rule behind the calls is not given here.
Please state which outcome applies, choosing from active, inactive

For orientation, consider the following solved cases.
| Compound | Tested target | Classification |
| --- | --- | --- |
| NCCCCCCCCCCCC(=O)O | CCRIS mutagenicity, Ames/micronucleus/aberration tests | inactive |
| Nc1ccccc1C(=O)OCCc1ccccc1 | CCRIS mutagenicity, Ames/micronucleus/aberration tests | inactive |
| Oc1ccc2ccccc2c1N=Nc1ccccc1 | CCRIS mutagenicity, Ames/micronucleus/aberration tests | inactive |
| CCCCOCCCC | CCRIS mutagenicity, Ames/micronucleus/aberration tests | inactive |
| C=C1/C(=C\C=C2/CCC[C@]3(C)[C@@H]([C@H](C)/C=C/[C@@H](O)C4CC4)CC[C@@H]23)C[C@@H](O)C[C@@H]1O | CCRIS mutagenicity, Ames/micronucleus/aberration tests | inactive |

INPUT: I would be grateful if you could indicate the recorded call for `CCCCCC` .
OUTPUT: inactive

INPUT: I would be grateful if you could indicate the recorded call for `Nc1cccc(Cl)c1` .
OUTPUT: inactive

* * *

Test system: CCRIS mutagenicity, Ames/micronucleus/aberration tests
Test description: CCRIS mutagenicity studies
Measurement conditions: Test System: E. COLI; Strain/Indicator: WP2 UVRA; Metabolic Activation: RAT, LIVER, S-9, AROCLOR 1254; Method: STANDARD PLATE
Calls of active or inactive are those of the source. How the calls were made is not given here.

| Compound | mutagenic call |
| --- | --- |
| c1cc2ccc3cccc4ccc(c1)c2c34 | inactive; negative |
| CC(=O)N(CC(O)CN(C(C)=O)c1c(I)c(C(=O)NCC(O)CO)c(I)c(C(=O)NCC(O)CO)c1I)c1c(I)c(C(=O)NCC(O)CO)c(I)c(C(=O)NCC(O)CO)c1I (centres undefined) | inactive; negative |
| NCC1CCC(C(=O)c2ccc(CCC(=O)O)cc2)CC1 (centres undefined) | inactive; negative |

* * *

Tested on: CCRIS mutagenicity, Ames/micronucleus/aberration tests
Test description: CCRIS mutagenicity studies
Measurement conditions: Test System: AMES SALMONELLA TYPHIMURIUM; Strain/Indicator: TA1538; Metabolic Activation: NONE; Method: STANDARD PLATE
Active and inactive are the calls of the source. How the calls were made is not given here.
Please state which outcome applies, choosing from active, inactive

For orientation, consider the following solved cases.
| Record smiles | Classification |
| --- | --- |
| C=C(C)C(=O)OCCCCCOC(=O)C(=C)C | inactive |
| O=C1c2ccccc2C(=O)c2c1cc(O)c(O)c2O | active |
| O=C(COc1cc(Cl)c(Cl)cc1Cl)N[C@@H](Cc1c[nH]c2ccccc12)C(=O)O | inactive |
| COc1ccc(N=Nc2ccc(N(C)C)cc2)cc1 | active |

INPUT: I would be grateful if you could indicate the recorded call for `CC(=O)Nc1ccc(OC(=O)c2ccccc2OC(C)=O)cc1` .
OUTPUT: inactive

INPUT: I would be grateful if you could indicate the recorded call for `O=c1ccc2cc3c4c(c2o1)CCCN4CCC3` .
OUTPUT: inactive
